target: TRH-DE (Sus scrofa, UniProt A0A287AP33); construct: The inventor purified TRH-DE from porcine brain according to purification procedures previously published by Dr. K. Bauer; from tissue; host or cells: porcine brain (TRH-DE); bovine kidney (DPP-IV, gift from Dr. C. H. Williams); assay: HPLC assay of peptide hydrolysis by TRH-DE (Glp production); assay type: biochemical, porcine; conditions: 1 mM peptide incubated with TRH-DE 18 h at 37° C., HPLC
Sequence (A0A287AP33 1-1066): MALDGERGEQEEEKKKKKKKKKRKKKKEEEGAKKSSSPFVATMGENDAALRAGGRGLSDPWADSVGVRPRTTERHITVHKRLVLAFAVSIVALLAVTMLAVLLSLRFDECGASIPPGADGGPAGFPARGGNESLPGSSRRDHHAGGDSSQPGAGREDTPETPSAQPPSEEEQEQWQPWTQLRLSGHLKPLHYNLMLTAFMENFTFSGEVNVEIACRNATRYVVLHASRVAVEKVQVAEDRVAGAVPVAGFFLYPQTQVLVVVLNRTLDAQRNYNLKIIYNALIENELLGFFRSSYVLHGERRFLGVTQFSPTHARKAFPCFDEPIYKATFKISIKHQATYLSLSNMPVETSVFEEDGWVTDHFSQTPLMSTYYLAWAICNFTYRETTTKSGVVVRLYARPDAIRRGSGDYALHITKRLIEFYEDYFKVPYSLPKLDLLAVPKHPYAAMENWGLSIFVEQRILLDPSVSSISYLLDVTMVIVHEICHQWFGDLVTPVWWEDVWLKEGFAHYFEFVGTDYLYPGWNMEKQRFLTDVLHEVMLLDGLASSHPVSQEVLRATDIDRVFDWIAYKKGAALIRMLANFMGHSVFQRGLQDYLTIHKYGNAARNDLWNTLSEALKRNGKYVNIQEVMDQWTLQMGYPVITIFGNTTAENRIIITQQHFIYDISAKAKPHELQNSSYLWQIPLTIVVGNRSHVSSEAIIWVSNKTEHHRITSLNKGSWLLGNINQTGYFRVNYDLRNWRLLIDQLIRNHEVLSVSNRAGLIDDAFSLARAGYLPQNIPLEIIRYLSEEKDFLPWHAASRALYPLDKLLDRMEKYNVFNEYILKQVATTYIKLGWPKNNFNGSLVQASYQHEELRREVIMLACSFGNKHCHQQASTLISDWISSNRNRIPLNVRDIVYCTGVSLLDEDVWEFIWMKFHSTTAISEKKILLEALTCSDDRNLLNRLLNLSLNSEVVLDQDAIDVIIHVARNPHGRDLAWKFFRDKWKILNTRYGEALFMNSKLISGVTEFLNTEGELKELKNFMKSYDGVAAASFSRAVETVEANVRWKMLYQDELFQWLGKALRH
Where a SMILES comes first, the peptide text is derived from it. [ ]: non-standard residue; d: D form. pGlu = O=C1CC[C@@H](C(=O)O)N1; Phg = N[C@H](C(=O)O)c1ccccc1
endpoint_name: hydrolysis by TRH-DE (release of Glp)

# annotated cases, reported hydrolysis by TRH-DE (release of Glp) shown
| molecule | hydrolysis by TRH-DE (release of Glp) |
| --- | --- |
| NC(=O)[C@@H]1CCCN1C(=O)[C@H](CCC(=O)O)NC(=O)[C@@H]1CCC(=O)N1 [Glp-Glu-ProNH2] ([pGlu]-Glu-Pro-NH2) | No detectable Glp |
| NC(=O)[C@@H]1CCCN1C(=O)[C@H](Cc1c[nH]c2ccccc12)NC(=O)[C@@H]1CCC(=O)N1 [Glp-Trp-ProNH2] ([pGlu]-Trp-Pro-NH2) | No detectable Glp |
| NC(=O)[C@@H]1CCCN1C(=O)[C@@H](NC(=O)[C@@H]1CCC(=O)N1)c1ccccc1 [Glp-Phg-ProNH2] ([pGlu]-[Phg]-Pro-NH2) | No detectable Glp |
| NC(=O)[C@@H]1CCCN1C(=O)[C@H](CC(=O)O)NC(=O)[C@@H]1CCC(=O)N1 [Glp-Asp-ProNH2] ([pGlu]-Asp-Pro-NH2) | No detectable Glp |

Okay, now this molecule:
Ask: Please look up its hydrolysis by TRH-DE (release of Glp): NC(=O)[C@@H]1CCCN1C(=O)CNC(=O)[C@@H]1CCC(=O)N1 [Glp-Gly-ProNH2] ([pGlu]-Gly-Pro-NH2)
Result: No detectable Glp

* * *

molecular target: TRH-DE (Sus scrofa); construct: The inventor purified TRH-DE from porcine brain according to purification procedures previously published by Dr. K. Bauer; from tissue; host or cells: porcine brain (TRH-DE); bovine kidney (DPP-IV, gift from Dr. C. H. Williams); test: continuous coupled fluorometric TRH-DE assay (TRHAMC substrate, DPP-IV coupling enzyme); assay type: biochemical, porcine; settings: peptide 1 mM, 5 μM TRHAMC substrate
Where a SMILES comes first, the peptide text is derived from it. [ ]: non-standard residue; d: D form. pGlu = O=C1CC[C@@H](C(=O)O)N1
endpoint_name: inhibition at 1000 µM (%)
The reply should be a number in %, with the unit left off.

| compound | experimental_target | units_label | inhibition at 1000 µM |
| --- | --- | --- | --- |
| NC(=O)[C@@H]1CCCN1C(=O)[C@@H]1CCCN1C(=O)[C@@H]1CCC(=O)N1 [Glp-Pro-ProNH2] ([pGlu]-Pro-Pro-NH2) | TRH-DE (Sus scrofa) | % | 3 |

Ask: Checklist item: inhibition at 1000 µM tested on TRH-DE (Sus scrofa), entry NC(=O)[C@@H]1CCCN1C(=O)[C@H](CC(=O)O)NC(=O)[C@@H]1CCC(=O)N1 [Glp-Asp-ProNH2] ([pGlu]-Asp-Pro-NH2) , value?
Result: 1

Ask: Checklist item: inhibition at 1000 µM tested on TRH-DE (Sus scrofa), entry NC(=O)C[C@H](NC(=O)[C@@H]1CCC(=O)N1)C(=O)N1CCC[C@H]1C(N)=O [Glp-Asn-ProNH2, pyroglutamyl-asparaginyl-prolineamide] ([pGlu]-Asn-Pro-NH2) , value?
Result: 97

Ask: Checklist item: inhibition at 1000 µM tested on TRH-DE (Sus scrofa), entry NC(=O)[C@@H]1CCCN1C(=O)CNC(=O)[C@@H]1CCC(=O)N1 [Glp-Gly-ProNH2] ([pGlu]-Gly-Pro-NH2) , value?
Result: 8

* * *

Reported values of Ki for individual entries
target: TRH-DE (Sus scrofa); construct: The inventor purified TRH-DE from porcine brain according to purification procedures previously published by Dr. K. Bauer; from tissue; host or cells: porcine brain (TRH-DE); bovine kidney (DPP-IV, gift from Dr. C. H. Williams); assay: continuous coupled fluorometric TRH-DE assay (TRHAMC substrate, DPP-IV coupling enzyme); type: biochemical, porcine; conditions: calculated from percent inhibition measured in duplicate at 5 μM substrate
Where a SMILES comes first, the peptide text is derived from it. [ ]: non-standard residue; d: D form. The star is where a group is joined. AMC = Cc1cc(=O)oc2cc(N*)ccc12; pGlu = O=C1CC[C@@H](C(=O)O)N1; NHBn = c1ccc(CN*)cc1
The reply should be a number in µM, with the unit left off.

Ask: Please look up its Ki: Cc1cc(=O)oc2cc(NC(=O)[C@@H]3CCCN3C(=O)[C@H](CC(N)=O)NC(=O)[C@@H]3CCC(=O)N3)ccc12 [Glp-Asn-ProAMC, Glp-Asn-Pro-7amido-4-methyl coumarin] ([pGlu]-Asn-Pro-{AMC})
Result: 0.41

Ask: Please look up its Ki: COc1ccccc1NC(=O)[C@@H]1CCCN1C(=O)[C@H](CC(N)=O)NC(=O)[C@@H]1CCC(=O)N1 [o-anisidide]
Result: 11.6

Ask: Please look up its Ki: NC(=O)C[C@H](NC(=O)[C@@H]1CCC(=O)N1)C(=O)N1CCC[C@H]1C(=O)NCc1ccccc1 [Benzylamide] ([pGlu]-Asn-Pro-NHBn)
Result: 11.9

Ask: Please look up its Ki: COc1cccc(NC(=O)[C@@H]2CCCN2C(=O)[C@H](CC(N)=O)NC(=O)[C@@H]2CCC(=O)N2)c1 [m-anisidide]
Result: 0.86

* * *

target: TRH-DE (Sus scrofa); construct: The inventor purified TRH-DE from porcine brain according to purification procedures previously published by Dr. K. Bauer; from tissue; host or cells: porcine brain (TRH-DE); bovine kidney (DPP-IV, gift from Dr. C. H. Williams); test: continuous coupled fluorometric TRH-DE assay (TRHAMC substrate, DPP-IV coupling enzyme); type: biochemical, porcine; settings: from the percent inhibition (n = 3) in the presence of 5 μM substrate
Where a SMILES comes first, the peptide text is derived from it. [ ]: non-standard residue; d: D form. pGlu = O=C1CC[C@@H](C(=O)O)N1
endpoint_name: pKi
Notebook: values listed as pKi are -log10 of the concentration (mol/L).

# annotated cases, reported pKi shown
| compound | experimental_result |
| --- | --- |
| NC(=O)C[C@H](NC(=O)[C@@H]1CCC(=O)N1)C(=O)N1CCC[C@H]1C(=O)N[C@@H](Cc1c[nH]c2ccccc12)C(=O)N[C@@H](Cc1ccc(O)cc1)C(N)=O [Glp-Asn-Pro-Trp-Tyr-NH2] ([pGlu]NPWY-NH2) | 5.23 |
| NC(=O)C[C@H](NC(=O)[C@@H]1CCC(=O)N1)C(=O)N1CCC[C@H]1C(=O)N[C@@H](Cc1ccc(O)cc1)C(=O)N[C@@H](Cc1c[nH]c2ccccc12)C(N)=O [Glp-Asn-Pro-Tyr-Trp-NH2] ([pGlu]NPYW-NH2) | 6.11 |
| NC(=O)C[C@H](NC(=O)[C@@H]1CCC(=O)N1)C(=O)N1CCC[C@H]1C(=O)N[C@@H](Cc1c[nH]c2ccccc12)C(N)=O [Glp-Asn-Pro-Trp-NH2] ([pGlu]NPW-NH2) | 5.29 |

Okay, now this compound:
Ask: Checklist item: pKi tested on TRH-DE (Sus scrofa), entry NC(=O)C[C@H](NC(=O)[C@@H]1CCC(=O)N1)C(=O)N1CCC[C@H]1C(=O)N[C@@H](Cc1ccc(O)cc1)C(N)=O [Glp-Asn-Pro-Tyr-NH2] ([pGlu]NPY-NH2) , value?
Result: 4.99

* * *

molecular target: TRH-DE (Sus scrofa, UniProt A0A287AP33); construct: The inventor purified TRH-DE from porcine brain according to purification procedures previously published by Dr. K. Bauer; from tissue; host or cells: porcine brain (TRH-DE); bovine kidney (DPP-IV, gift from Dr. C. H. Williams); experiment: continuous coupled fluorometric TRH-DE assay (TRHAMC substrate, DPP-IV coupling enzyme); format: biochemical, porcine; details: peptide 1 mM, 5 μM TRHAMC substrate
Where a SMILES comes first, the peptide text is derived from it. [ ]: non-standard residue; d: D form. pGlu = O=C1CC[C@@H](C(=O)O)N1; Phg = N[C@H](C(=O)O)c1ccccc1; Pip = O=C(O)[C@@H]1CCCCN1
endpoint_name: inhibition at 1000 µM (%)
The reply should be a number in %, with the unit left off.

# annotated cases, reported inhibition at 1000 µM shown
| compound | units_label | experimental_result |
| --- | --- | --- |
| NC(=O)[C@@H]1CCCN1C(=O)[C@@H]1CCCCN1C(=O)[C@@H]1CCC(=O)N1 [Glp-homoPro-ProNH2] ([pGlu]-[Pip]-Pro-NH2) | % | 40 |
| NC(=O)[C@@H]1CCCN1C(=O)[C@@H](NC(=O)[C@@H]1CCC(=O)N1)c1ccccc1 [Glp-Phg-ProNH2] ([pGlu]-[Phg]-Pro-NH2) | % | 57 |
| NC(=O)[C@@H]1CCCN1C(=O)[C@H](CCC(=O)O)NC(=O)[C@@H]1CCC(=O)N1 [Glp-Glu-ProNH2] ([pGlu]-Glu-Pro-NH2) | % | 17 |
| NC(=O)[C@@H]1CCCN1C(=O)[C@H](Cc1c[nH]c2ccccc12)NC(=O)[C@@H]1CCC(=O)N1 [Glp-Trp-ProNH2] ([pGlu]-Trp-Pro-NH2) | % | 71 |
| NC(=O)C[C@@H](NC(=O)[C@@H]1CCC(=O)N1)C(=O)N1CCC[C@H]1C(N)=O [Glp-D-Asn-ProNH2] ([pGlu]-[dN]-Pro-NH2) | % | 2 |

Okay, now this compound:
Ask: Checklist item: inhibition at 1000 µM tested on TRH-DE (Sus scrofa, UniProt A0A287AP33), entry NC(=O)CC[C@H](NC(=O)[C@@H]1CCC(=O)N1)C(=O)N1CCC[C@H]1C(N)=O [Glp-Gln-ProNH2] ([pGlu]-Gln-Pro-NH2) , value?
Result: 83
